# System: Escherichia coli TOP10;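 further: peptides expressed intracellularly from a pBAD plasmid library in pooled LB shake-flask culture, induced with 0.3% L-arabinose, DNA abundance read by NGS, three biological replicates, DESeq2 with apeglm shrinkage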
# PROTOCOL_DESCRIPTION: shrunken log2 fold change of peptide-encoding DNA abundance (4.5 h post-induction vs induction); higher = less antimicrobial activity (less host growth inhibition)
# CONDITION_SET: time post-induction: 4.5 h; library: site-saturation at positions 5, 18, 19, 20
Consider the following sequences and their measured shrunken log2 fold change readings.
Number only, no unit.

Consider the worked cases shown below.
{"SEQUENCE": "RRIRKRPPRLPRPRPRPSLNPRP", "VAL": -0.0764}
{"SEQUENCE": "RRIRLRPPRLPRPRPRPLSAPRP", "VAL": 0.0846}
{"SEQUENCE": "RRIRDRPPRLPRPRPRPLSPPRP", "VAL": -0.0511}

Here is the next item to consider.
Which shrunken log2 fold change is reported for this sequence? `RRIRARPPRLPRPRPRPLHVPRP`
0.0439

Each recorded value in this set is attributed to the supplement of paper PMC9112550.
